Listed here are compounds together with their documented RLM, % (half-life as % vs. the related nondeuterated compound).
tested on: rat liver microsomes; test: Metabolic stability in rat liver microsomes (RLM); conditions: RLM; values in square brackets are within 10% difference (assay's accuracy), no deuteration effect

Below are worked cases with known answers.
[2H]C([2H])([2H])NC([2H])([2H])C([2H])([2H])c1c[nH]c2cccc(O)c12    173%
[2H]C([2H])(NC)C([2H])([2H])c1c[nH]c2cccc(O)c12    160%
[2H]C([2H])([2H])Oc1ccc2[nH]cc(C([2H])([2H])C([2H])([2H])N(C([2H])([2H])[2H])C([2H])([2H])[2H])c2c1    299%
[2H]C([2H])(Cc1c[nH]c2ccc(OC)cc12)N(C)CC    117%

Continue with the compound presented below.
Give the reported RLM, % (half-life as % vs. the related nondeuterated compound) for `[2H]C([2H])(Cc1c[nH]c2ccc(O)cc12)N(C)C` (system: rat liver microsomes).
133%

Recorded values, source patent US12240813B2.
